Cited source: ChEMBL document CHEMBL1126222

- Measured On: Integrin alpha-IIb/beta-3 (Homo sapiens, UniProt P05106+P08514)
- Sequence (P05106 27-788 limits assumed): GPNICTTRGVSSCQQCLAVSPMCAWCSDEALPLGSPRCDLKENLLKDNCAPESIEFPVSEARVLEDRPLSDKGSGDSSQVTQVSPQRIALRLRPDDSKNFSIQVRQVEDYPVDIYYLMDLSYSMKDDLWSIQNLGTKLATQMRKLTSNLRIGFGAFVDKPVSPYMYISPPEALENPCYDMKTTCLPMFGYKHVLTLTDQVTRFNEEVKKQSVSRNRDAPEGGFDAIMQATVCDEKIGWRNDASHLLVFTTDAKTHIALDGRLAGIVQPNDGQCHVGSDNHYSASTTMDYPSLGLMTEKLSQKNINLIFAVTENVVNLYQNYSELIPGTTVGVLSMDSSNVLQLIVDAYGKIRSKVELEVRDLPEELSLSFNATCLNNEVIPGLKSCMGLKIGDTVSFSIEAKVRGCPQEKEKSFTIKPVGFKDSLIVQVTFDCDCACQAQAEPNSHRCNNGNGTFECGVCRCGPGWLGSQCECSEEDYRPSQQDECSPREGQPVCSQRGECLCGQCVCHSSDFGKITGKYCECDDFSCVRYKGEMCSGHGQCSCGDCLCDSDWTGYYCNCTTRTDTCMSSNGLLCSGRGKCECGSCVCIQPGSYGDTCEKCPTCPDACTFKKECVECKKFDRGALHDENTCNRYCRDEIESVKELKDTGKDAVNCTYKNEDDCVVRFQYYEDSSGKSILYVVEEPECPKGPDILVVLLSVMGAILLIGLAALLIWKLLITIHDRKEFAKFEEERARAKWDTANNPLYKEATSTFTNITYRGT
- Sequence (P08514 32-887 limits assumed): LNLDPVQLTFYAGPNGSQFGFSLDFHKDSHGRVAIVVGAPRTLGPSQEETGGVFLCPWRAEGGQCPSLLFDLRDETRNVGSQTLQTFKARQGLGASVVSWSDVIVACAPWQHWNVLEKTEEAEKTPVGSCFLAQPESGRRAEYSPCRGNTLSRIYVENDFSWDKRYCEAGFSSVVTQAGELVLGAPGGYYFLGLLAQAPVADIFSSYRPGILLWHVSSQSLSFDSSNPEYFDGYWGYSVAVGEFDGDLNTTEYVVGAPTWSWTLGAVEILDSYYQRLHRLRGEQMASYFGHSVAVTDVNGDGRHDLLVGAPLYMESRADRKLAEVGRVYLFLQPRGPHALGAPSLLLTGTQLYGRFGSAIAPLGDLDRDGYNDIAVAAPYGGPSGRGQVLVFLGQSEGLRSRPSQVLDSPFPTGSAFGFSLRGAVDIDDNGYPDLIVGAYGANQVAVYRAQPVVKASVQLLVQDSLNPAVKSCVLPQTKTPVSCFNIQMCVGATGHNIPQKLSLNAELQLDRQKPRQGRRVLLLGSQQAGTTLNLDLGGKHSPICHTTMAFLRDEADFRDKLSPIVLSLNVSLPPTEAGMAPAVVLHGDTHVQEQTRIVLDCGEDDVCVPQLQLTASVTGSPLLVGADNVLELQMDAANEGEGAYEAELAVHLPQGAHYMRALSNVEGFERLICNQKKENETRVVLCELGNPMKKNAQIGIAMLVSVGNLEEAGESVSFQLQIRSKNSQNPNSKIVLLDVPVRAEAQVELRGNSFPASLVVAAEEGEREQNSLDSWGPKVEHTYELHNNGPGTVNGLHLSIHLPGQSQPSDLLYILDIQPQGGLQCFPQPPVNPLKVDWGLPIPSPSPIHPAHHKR
- Sequence (P08514 891-1039 limits assumed): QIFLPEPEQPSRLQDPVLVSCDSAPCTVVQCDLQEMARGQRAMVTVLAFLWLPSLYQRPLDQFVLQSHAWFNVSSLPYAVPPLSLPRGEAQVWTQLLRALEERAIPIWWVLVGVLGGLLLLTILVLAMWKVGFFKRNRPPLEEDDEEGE
- Assay Details: Inhibition of [3H]Mba-(N-Me)Arg-Gly-Asp-Man binding to Fibrinogen Receptor from human platelets reconstituted in liposomes
pKi: −log10 of the molar value.
Measured Parameter: pKi

INSERT INTO assay_data (molecule, reported_value) VALUES
  ('CC(=O)N[C@@H](CS)C(=O)N[C@@H](CCCN=C(N)N)C(=O)NCC(=O)N[C@@H](CC(=O)O)C(=O)NC(C(N)=O)C(C)(C)S (stereo in doubt)', 5.50);

====

- Measured On: Integrin alpha-IIb/beta-3 (Homo sapiens, UniProt P05106+P08514)
- Assay Details: Inhibition of [3H]Mba-(N-Me)Arg-Gly-Asp-Man binding to GPIIb/IIIa from human platelets reconstituted in liposomes
pKi: −log10 of the molar value.
Measured Parameter: pKi

INSERT INTO results (compound_smiles, measured_parameter, lt_gt_eq, reported_value) VALUES
  ('N=C(N)NCCC[C@@H]1NC(=O)[C@@H]2CCCN2C(=O)[C@@H](Cc2ccccc2)NC(=O)CNC(=O)[C@H](CC(=O)O)NC(=O)CNC1=O', 'pKi', '=', 4.73),
  ('N=C(N)NCCC[C@@H]1NC(=O)[C@@H]2CCCN2C(=O)CNC(=O)[C@H]2CCCN2C(=O)[C@H](CC(=O)O)NC(=O)CNC1=O', 'pKi', '<', 4.00);
